- Tested on: Influenza A virus
- Assay summary: Antiviral activity against oseltamivir-susceptible zanamivir-, adamantane-resistant Influenza A virus (A/Texas/12/2007 (clone)(H3N2)) harboring neuraminidase E119V mutant and harboring M2 S31N mutant infected in MDCK cells assessed as inhibition of viral replication after 3 days by microscopic analysis using crystal violet stain
- Type: functional, organism-based, Influenza A virus (A/Texas/12/2007(H3N2))
Readout name: pEC50
As a rule, pEC50 stands for the negative log10 of the concentration, concentration in M.

Challenge: Recorded pEC50 for "NC(=O)c1nc(F)cnc1O" , please?
Response given: 5.28

====

- System: Influenza B virus
- Assay summary: Antiviral activity against oseltamivir-susceptible zanamivir-, adamantane-resistant Influenza B virus (B/Michigan/20/2005) harboring neuraminidase H274Y mutant infected in MDCK cells assessed as inhibition of viral replication after 3 days by microscopic analysis using crystal violet stain
- Assay type: functional, cell-based
Readout name: EC50 (µM)
Write it as a number; the unit µM goes unstated.

Challenge: Recorded EC50 for "NC(=O)c1nc(F)cnc1O" , please?
Response given: 5.03

====

- System: Influenza A virus
- Assay summary: Antiviral activity against oseltamivir-susceptible zanamivir-, adamantane-resistant Influenza A virus (A/pdm/Illinois/10/2009(H1N1)) harboring M2 V28I, S31N mutant and neuraminidase H274Y mutant infected in MDCK cells assessed as inhibition of viral replication after 3 days by microscopic analysis using crystal violet stain
- Type: functional, organism-based, (A/Illinois/10/2009(H1N1))
Readout name: EC50 (µM)
Write it as a number; the unit µM goes unstated.

Challenge: Recorded EC50 for "NC(=O)c1nc(F)cnc1O" , please?
Response given: 22.5

====

- Test system: Influenza A virus
- Assay summary: Antiviral activity against adamantane-susceptible zanamivir-, oseltamivir-resistant Influenza A virus (A/Santiago/5248/2008(H1N1)) harboring neuraminidase D198E mutant infected in MDCK cells assessed as inhibition of viral replication after 3 days by microscopic analysis using crystal violet stain
- Format: functional, organism-based
Readout name: EC50 (µM)
Write it as a number; the unit µM goes unstated.

Challenge: Param readout = EC50; param system = Influenza A virus; param query = "NC(=O)c1nc(F)cnc1O" ; response: value
Response given: 4.7

====

- Test system: Influenza A virus
- Assay summary: Antiviral activity against adamantane-resistant zanamivir-,oseltamivir-susceptible Influenza A virus (A/New Hampshire/01/2009(H3N2)) harboring M2 S31N mutant infected in MDCK cells assessed as inhibition of viral replication after 3 days by microscopic analysis using crystal violet stain
- Assay type: functional, organism-based
Readout name: EC50 (µM)
Write it as a number; the unit µM goes unstated.

Challenge: Param readout = EC50; param system = Influenza A virus; param query = "NC(=O)c1nc(F)cnc1O" ; response: value
Response given: 4.08

====

- Assay summary: Antiviral activity against adamantane-, oseltamivir-, zanamivir-resistant Influenza B virus (B/Illinois/03/2008) harboring neuraminidase E119A mutant infected in MDCK cells assessed as inhibition of viral replication after 3 days by microscopic analysis using crystal violet stain
- Assay type: functional, cell-based
Readout name: pEC50
As a rule, pEC50 stands for the negative log10 of the concentration, concentration in M.

Challenge: Recorded pEC50 for "NC(=O)c1nc(F)cnc1O" , please?
Response given: 5.52

====

- System: Influenza A virus
- Assay summary: Antiviral activity against adamantane-resistant zanamivir-,oseltamivir-susceptible Influenza A virus (A/Florida/01/2009(H3N2)) harboring M2 S31N mutant infected in MDCK cells assessed as inhibition of viral replication after 3 days by microscopic analysis using crystal violet stain
- Assay type: functional, organism-based
Readout name: EC50
Write the numeric value and append its unit.

Query smiles: NC(=O)c1nc(F)cnc1O
EC50: 0.45 µM

Read the next record carefully.
Challenge: Recorded EC50 for "NC(=O)c1ncn([C@@H]2O[C@H](CO)[C@@H](O)[C@H]2O)n1" , please?
Response given: 20.9 µM

====

- Tested on: Influenza A virus
- Assay summary: Antiviral activity against adamantane-, oseltamivir-, zanamivir-resistant Influenza A virus (A/Idaho/01/2009(H1N1)) harboring neuraminidase H274Y mutant infected in MDCK cells assessed as inhibition of viral replication after 3 days by microscopic analysis using crystal violet stain
- Type: functional, organism-based, Influenza A virus (A/Idaho/01/2008(H1N1))
Readout name: EC50 (nM)
Write it as a number; the unit nM goes unstated.

Challenge: Param readout = EC50; param system = Influenza A virus; param query = "NC(=O)c1nc(F)cnc1O" ; response: value
Response given: 2930

====

- Test system: Influenza A virus
- Assay summary: Antiviral activity against adamantane-resistant zanamivir-,oseltamivir-susceptible Influenza A virus (A/pdm/Mexico/4604/2009 (H1N1)) harboring M2 V28I, S31N mutant infected in MDCK cells assessed as inhibition of viral replication after 3 days by microscopic analysis using crystal violet stain
- Assay type: functional, organism-based, Influenza A virus (A/Mexico/4604/2009(H1N1))
Readout name: EC50 (µM)
Write it as a number; the unit µM goes unstated.

Challenge: Recorded EC50 for NC(=O)c1nc(F)cnc1O [FAVIPIRAVIR] , please?
Response given: 1.21

====

- Tested on: Influenza A virus
- Assay summary: Antiviral activity against adamantane-resistant zanamivir-,oseltamivir-susceptible Influenza A virus (A/pdm/California/07/2009 (H1N1)) harboring M2 V28I, S31N mutant infected in MDCK cells assessed as inhibition of viral replication after 3 days by microscopic analysis using crystal violet stain
- Type: functional, organism-based, A/California/07/2009(H1N1)
Readout name: pEC50
As a rule, pEC50 stands for the negative log10 of the concentration, concentration in M.

Challenge: Recorded pEC50 for "NC(=O)c1nc(F)cnc1O" , please?
Response given: 5.85

====

- Test system: Influenza A virus
- Assay summary: Antiviral activity against adamantane-, zanamivir-susceptible oseltamivir-resistant Influenza A virus (A/North Carolina/02/ 2009(H1N1)) harboring M2 S31N mutant infected in MDCK cells assessed as inhibition of viral replication after 3 days by microscopic analysis using crystal violet stain
- Format: functional, organism-based
Readout name: EC50 (µM)
Write it as a number; the unit µM goes unstated.

Challenge: Recorded EC50 for NC(=O)c1nc(F)cnc1O [FAVIPIRAVIR] , please?
Response given: 5.03
